EXPERIMENTAL_SYSTEM: T1, human TREM2 (human, UniProt Q9NZC2 19-174, limits assumed)
T1 construct: also called triggering receptor expressed on myeloid cells 2
T1 sequence: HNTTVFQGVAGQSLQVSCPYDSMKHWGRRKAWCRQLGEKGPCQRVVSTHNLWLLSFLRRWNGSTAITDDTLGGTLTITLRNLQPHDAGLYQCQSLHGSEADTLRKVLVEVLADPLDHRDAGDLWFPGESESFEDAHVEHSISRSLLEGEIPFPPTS
ASSAY_OVERVIEW: 1st screen (110 nM or 10 nM)
Provide the recorded Binding Signal (fold over 6E7 Parental antibody) for the entries that follow.
Answer in fold, number only, no unit symbol.

Entry V16 (antibody, V domains shown) VH: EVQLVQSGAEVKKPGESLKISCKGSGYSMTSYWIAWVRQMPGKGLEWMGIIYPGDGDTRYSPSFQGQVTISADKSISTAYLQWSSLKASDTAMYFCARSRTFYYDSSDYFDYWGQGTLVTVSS VL: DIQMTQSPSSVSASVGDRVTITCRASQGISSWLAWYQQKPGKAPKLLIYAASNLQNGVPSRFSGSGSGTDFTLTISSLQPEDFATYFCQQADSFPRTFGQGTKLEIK has what Binding Signal (fold over 6E7 Parental antibody)?
4.01

Note, next up: V93 (antibody, V domains shown) VH: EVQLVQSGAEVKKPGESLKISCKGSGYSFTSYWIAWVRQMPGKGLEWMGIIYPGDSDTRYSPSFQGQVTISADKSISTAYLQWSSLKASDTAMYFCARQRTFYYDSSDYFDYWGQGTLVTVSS VL: DIQMTQSPSSVSASVGDRVTITCRASQGISGWLAWYQQKPGKAPKLLIYAASSLQNGVPSRFSGSGSGTDFTLTISSLQPEDFATYFCQQADSFPRTFGQGTKLEIK
0.35

Note, next up: V88 (antibody, V domains shown) VH: EVQLVQSGAEVKKPGESLKISCKGSGYSFGSYWIAWVRQMPGKGLEWMGIIYPGDSDTRYSPSFQGQVTISADKSISTAYLQWSSLKASDTAMYFCARQRTFYYDSSDYFDYWGQGTLVTVSS VL: DIQMTQSPSSVSASVGDRVTITCRASQGISSWLAWYQQKPGKAPKLLIYAASRLQRGVPSRFSGSGSGTDFTLTISSLQPEDFATYFCQQADSSPRTFGQGTKLEIK
4.92
